molecular target: T1, human CD8A-Fc (recombinant human CD8 alpha fused to Fc fragment of human IgG1) (human, UniProt P01732 22-182, limits assumed); assay: SPR on recombinant human CD8 alpha after DFO conjugation, lower affinity population
T1 construct: SPR ligand, captured by goat anti-human Fc; also called hCD8A-Fc; recombinant CD8 alpha; not shown: linker with flag (and polyhistidine) tag and Fc fragment of human IgG1; depends on which of the two constructs was used
T1 sequence (P01732 22-182 limits assumed): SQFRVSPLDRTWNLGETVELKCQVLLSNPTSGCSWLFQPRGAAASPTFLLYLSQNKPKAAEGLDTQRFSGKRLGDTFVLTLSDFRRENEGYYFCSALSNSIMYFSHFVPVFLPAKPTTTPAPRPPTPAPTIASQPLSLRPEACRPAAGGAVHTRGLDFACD
For each of the binders below, state its Kd.
Write the value in nM as a bare number.

IN: Identify measured Kd associated with CD8S367-DFO (designed binder, deferoxamine (DFO) conjugated to the free cysteine introduced by E54C, DFO conjugate of CD8S367) LPAPKNLVVSRVTEDSARLSWTAPDAAFDSFAIAYPEWPPQGEAIVLTVPGSCRSYDLTGLKPGTEYFVVIYGVKGGSYSAPLSAIFTT
OUT: 89.1

IN: Identify measured Kd associated with CD8S365-DFO (designed binder, deferoxamine (DFO) conjugated to the free cysteine introduced by E54C, DFO conjugate of CD8S365) LPAPKNLVVSRVTEDSARLSWTAPDAAFDSFGILYYEPVDSGEAITLPVPGSCRSYDLTGLKPGTEYWVVITGVKGGAPSTPLGTIFTT
OUT: 9.73

IN: Identify measured Kd associated with CD8S370-DFO (designed binder, deferoxamine (DFO) conjugated to the free cysteine introduced by E54C, DFO conjugate of CD8S370) LPAPKNLVVSRVTEDSARLSWTAPDAAFDSFAITYIEKEHIEDGEAIVLTVPGSCRSYDLTGLKPGTEYWVPIWGVKGGANSWPLSAIFTT
OUT: 13

IN: Identify measured Kd associated with CD8S368-DFO (designed binder, deferoxamine (DFO) conjugated to the free cysteine introduced by E54C, DFO conjugate of CD8S368) LPAPKNLVVSRVTEDSARLSWTAPDAAFDSFQIAYPEWPPPGEAIVLTVPGSCRSYDLTGLKPGTEYFVIIQGVKGGVESWPLSAIFTT
OUT: 13.6

IN: Identify measured Kd associated with CD8S366-DFO (designed binder, deferoxamine (DFO) conjugated to the free cysteine introduced by E54C, DFO conjugate of CD8S366) LPAPKNLVVSRVTEDSARLSWTAPDAAFDSFWITYPEWPDPGGEAIVLTVPGSCRSYDLTGLKPGTEYFVVIYGVKGGEIYSPLSAIFTT
OUT: 18.2
